Molecular target: SRPK2 (Homo sapiens (Human))
Sequence (P78362 whole entry): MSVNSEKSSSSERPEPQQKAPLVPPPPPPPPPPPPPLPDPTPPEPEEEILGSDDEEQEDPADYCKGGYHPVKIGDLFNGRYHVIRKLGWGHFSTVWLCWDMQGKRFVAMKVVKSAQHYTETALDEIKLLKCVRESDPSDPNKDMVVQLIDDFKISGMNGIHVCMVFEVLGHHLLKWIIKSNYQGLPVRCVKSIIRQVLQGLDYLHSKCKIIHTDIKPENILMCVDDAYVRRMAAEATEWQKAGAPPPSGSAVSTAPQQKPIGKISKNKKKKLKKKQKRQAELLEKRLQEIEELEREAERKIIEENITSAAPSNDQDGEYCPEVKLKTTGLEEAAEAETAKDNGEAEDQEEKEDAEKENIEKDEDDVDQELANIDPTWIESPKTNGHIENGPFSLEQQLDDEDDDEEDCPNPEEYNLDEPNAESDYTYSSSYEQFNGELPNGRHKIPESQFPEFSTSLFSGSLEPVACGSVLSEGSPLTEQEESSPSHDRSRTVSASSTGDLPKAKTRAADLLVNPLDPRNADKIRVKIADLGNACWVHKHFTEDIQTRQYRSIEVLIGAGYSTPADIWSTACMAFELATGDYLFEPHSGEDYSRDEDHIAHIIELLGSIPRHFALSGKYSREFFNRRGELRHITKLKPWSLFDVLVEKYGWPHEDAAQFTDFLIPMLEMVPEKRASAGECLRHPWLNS
Experiment: KiNativ assay
Format: binding
Conditions: H929 live cell, read-out: inhibition (10 μM)
property name: inhibition at 10 µM (%)
Numeric only. Scale: %

q: # input compound: Nc1ncc(-c2cccc3ncsc23)cc1-c1ccc2c(c1)CCNC2=O ; wanted: its inhibition at 10 µM
a: -14

q: # input compound: Nc1ncc(-c2ccc(NS(=O)(=O)C3CC3)cc2OC2CCCCC2)cc1-c1ccc2c(c1)CCNC2=O ; wanted: its inhibition at 10 µM
a: -29.4

q: # input compound: Nc1ncc(-c2cccc([N+](=O)[O-])c2F)cc1-c1ccc2c(c1)CCNC2=O ; wanted: its inhibition at 10 µM
a: 18.9

q: # input compound: Nc1ncc(-c2ccc(NS(=O)(=O)C3CC3)cc2F)cc1-c1ccc2c(c1)CCNC2=O ; wanted: its inhibition at 10 µM
a: -41

q: # input compound: CN(C1CC1)S(=O)(=O)c1ccc(-c2cnc(N)c(-c3ccc4c(c3)CCNC4=O)c2)c(F)c1 ; wanted: its inhibition at 10 µM
a: 8.5

q: # input compound: COc1cc(NS(=O)(=O)C2CC2)ccc1-c1cnc(N)c(-c2ccc3c(c2)CCNC3=O)c1 ; wanted: its inhibition at 10 µM
a: 1.8

* * *

Can you tell me inhibition at 10 µM for the items I'm about to list?
Biological target: NEK8 (Homo sapiens (Human), UniProt Q86SG6)
Sequence (Q86SG6 whole entry): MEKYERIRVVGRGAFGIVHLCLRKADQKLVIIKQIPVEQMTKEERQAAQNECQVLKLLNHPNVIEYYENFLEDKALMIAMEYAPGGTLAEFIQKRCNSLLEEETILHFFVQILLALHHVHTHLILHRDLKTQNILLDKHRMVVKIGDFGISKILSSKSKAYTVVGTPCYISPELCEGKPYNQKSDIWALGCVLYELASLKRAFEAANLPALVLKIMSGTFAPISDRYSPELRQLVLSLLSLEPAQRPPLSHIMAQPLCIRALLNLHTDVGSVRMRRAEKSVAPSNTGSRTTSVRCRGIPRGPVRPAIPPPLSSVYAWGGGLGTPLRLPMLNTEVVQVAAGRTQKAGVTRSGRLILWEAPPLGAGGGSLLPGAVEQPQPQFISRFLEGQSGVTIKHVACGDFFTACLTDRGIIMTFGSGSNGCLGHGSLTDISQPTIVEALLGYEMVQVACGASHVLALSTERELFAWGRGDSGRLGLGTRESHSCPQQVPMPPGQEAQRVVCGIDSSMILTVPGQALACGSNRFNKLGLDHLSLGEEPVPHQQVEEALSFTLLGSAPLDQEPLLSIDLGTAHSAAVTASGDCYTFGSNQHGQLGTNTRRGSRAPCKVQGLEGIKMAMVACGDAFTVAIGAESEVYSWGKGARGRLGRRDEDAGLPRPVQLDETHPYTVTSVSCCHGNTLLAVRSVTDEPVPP
Experiment: KiNativ assay
Assay type: binding
Settings: H929 live cell, read-out: inhibition (10 μM)
Numeric only. Scale: %

q: # input compound: Nc1ncc(-c2cccc([N+](=O)[O-])c2F)cc1-c1ccc2c(c1)CCNC2=O [Compound I-9] ; wanted: its inhibition at 10 µM
a: 11.6

q: # input compound: Nc1ncc(-c2cccc3ncsc23)cc1-c1ccc2c(c1)CCNC2=O [Compound I-13] ; wanted: its inhibition at 10 µM
a: 10.6

q: # input compound: Nc1ncc(-c2ccc(NS(=O)(=O)C3CC3)cc2F)cc1-c1ccc2c(c1)CCNC2=O [Compound I-51] ; wanted: its inhibition at 10 µM
a: -8.1

q: # input compound: COc1cc(NS(=O)(=O)C2CC2)ccc1-c1cnc(N)c(-c2ccc3c(c2)CCNC3=O)c1 [Compound I-50] ; wanted: its inhibition at 10 µM
a: -8.1

q: # input compound: Nc1ncc(-c2ccc(NS(=O)(=O)C3CC3)cc2OC2CCCCC2)cc1-c1ccc2c(c1)CCNC2=O [Compound I-65] ; wanted: its inhibition at 10 µM
a: -1.7

q: # input compound: CN(C1CC1)S(=O)(=O)c1ccc(-c2cnc(N)c(-c3ccc4c(c3)CCNC4=O)c2)c(F)c1 [Compound I-28] ; wanted: its inhibition at 10 µM
a: -3.4

* * *

Target: DGKH (Homo sapiens (Human))
Sequence (Q86XP1 whole entry): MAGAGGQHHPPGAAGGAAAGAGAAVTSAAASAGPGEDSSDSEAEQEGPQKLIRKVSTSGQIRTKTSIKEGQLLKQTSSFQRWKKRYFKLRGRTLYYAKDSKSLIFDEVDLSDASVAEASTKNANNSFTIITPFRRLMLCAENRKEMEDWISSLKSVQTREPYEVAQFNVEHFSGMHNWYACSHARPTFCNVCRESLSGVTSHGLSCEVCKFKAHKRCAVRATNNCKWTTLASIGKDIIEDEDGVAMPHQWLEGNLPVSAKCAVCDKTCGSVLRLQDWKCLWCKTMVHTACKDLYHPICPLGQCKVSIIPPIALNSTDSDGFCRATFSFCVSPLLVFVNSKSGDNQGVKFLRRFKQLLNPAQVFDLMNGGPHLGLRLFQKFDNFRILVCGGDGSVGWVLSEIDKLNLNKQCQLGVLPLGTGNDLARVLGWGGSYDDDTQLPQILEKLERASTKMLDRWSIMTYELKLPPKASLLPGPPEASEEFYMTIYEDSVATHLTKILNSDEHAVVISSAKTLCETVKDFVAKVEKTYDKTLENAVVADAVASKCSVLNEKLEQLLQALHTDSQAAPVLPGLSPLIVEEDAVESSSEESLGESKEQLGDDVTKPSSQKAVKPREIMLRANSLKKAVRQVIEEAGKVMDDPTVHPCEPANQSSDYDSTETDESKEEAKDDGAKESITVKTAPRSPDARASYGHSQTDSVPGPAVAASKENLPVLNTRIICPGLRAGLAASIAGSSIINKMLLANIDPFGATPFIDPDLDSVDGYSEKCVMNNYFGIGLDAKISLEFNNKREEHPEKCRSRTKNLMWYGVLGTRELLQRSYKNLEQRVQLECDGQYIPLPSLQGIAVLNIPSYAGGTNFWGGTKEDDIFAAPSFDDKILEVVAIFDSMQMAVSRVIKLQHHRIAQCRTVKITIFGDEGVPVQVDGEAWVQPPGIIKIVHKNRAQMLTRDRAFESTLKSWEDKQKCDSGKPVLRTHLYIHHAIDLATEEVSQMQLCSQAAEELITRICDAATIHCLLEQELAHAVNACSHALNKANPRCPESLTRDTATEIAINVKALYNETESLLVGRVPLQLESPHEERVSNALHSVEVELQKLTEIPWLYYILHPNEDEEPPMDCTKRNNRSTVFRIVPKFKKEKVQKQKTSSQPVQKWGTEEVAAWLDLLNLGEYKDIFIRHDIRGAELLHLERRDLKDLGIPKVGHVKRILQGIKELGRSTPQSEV
Assay: KiNativ assay
Assay type: binding
Conditions: H929 live cell, read-out: inhibition (10 μM)
Use yes (1) when the recorded inhibition at 10 µM is no lower than 10%; use no (0) when it is lower.

q: Does the reported inhibition at 10 µM for Nc1ncc(-c2ccc(NS(=O)(=O)C3CC3)cc2OC2CCCCC2)cc1-c1ccc2c(c1)CCNC2=O fall at or above the 10% mark?
a: no (0)

q: Does the reported inhibition at 10 µM for COc1cc(NS(=O)(=O)C2CC2)ccc1-c1cnc(N)c(-c2ccc3c(c2)CCNC3=O)c1 fall at or above the 10% mark?
a: no (0)

q: Does the reported inhibition at 10 µM for Nc1ncc(-c2cccc([N+](=O)[O-])c2F)cc1-c1ccc2c(c1)CCNC2=O fall at or above the 10% mark?
a: yes (1)

q: Does the reported inhibition at 10 µM for CN(C1CC1)S(=O)(=O)c1ccc(-c2cnc(N)c(-c3ccc4c(c3)CCNC4=O)c2)c(F)c1 fall at or above the 10% mark?
a: yes (1)

q: Does the reported inhibition at 10 µM for Nc1ncc(-c2cccc3ncsc23)cc1-c1ccc2c(c1)CCNC2=O fall at or above the 10% mark?
a: yes (1)

q: Does the reported inhibition at 10 µM for Nc1ncc(-c2ccc(NS(=O)(=O)C3CC3)cc2F)cc1-c1ccc2c(c1)CCNC2=O fall at or above the 10% mark?
a: no (0)

Taken from patent US10710978B2.
